In this section we review reported pIC50 values for a set of compounds.
STUDY_TARGET: human NaV 1.8 (Homo sapiens, UniProt Q9Y5Y9)
Sequence (Q9Y5Y9 126-399 limits assumed): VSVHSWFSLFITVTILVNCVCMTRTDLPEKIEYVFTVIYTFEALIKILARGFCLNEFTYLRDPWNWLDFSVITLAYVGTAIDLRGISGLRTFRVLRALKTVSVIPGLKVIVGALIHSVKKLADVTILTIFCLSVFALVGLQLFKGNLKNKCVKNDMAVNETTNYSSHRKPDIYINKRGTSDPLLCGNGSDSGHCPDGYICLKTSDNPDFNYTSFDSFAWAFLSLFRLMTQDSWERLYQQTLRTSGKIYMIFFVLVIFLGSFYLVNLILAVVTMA
Sequence (Q9Y5Y9 660-890 limits assumed): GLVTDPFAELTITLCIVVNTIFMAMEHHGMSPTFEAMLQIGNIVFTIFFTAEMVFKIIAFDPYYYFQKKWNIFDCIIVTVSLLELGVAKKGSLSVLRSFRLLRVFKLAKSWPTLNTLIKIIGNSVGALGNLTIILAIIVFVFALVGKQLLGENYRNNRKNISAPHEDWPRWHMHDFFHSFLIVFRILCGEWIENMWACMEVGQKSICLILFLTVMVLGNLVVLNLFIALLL
Sequence (Q9Y5Y9 1148-1722 limits assumed): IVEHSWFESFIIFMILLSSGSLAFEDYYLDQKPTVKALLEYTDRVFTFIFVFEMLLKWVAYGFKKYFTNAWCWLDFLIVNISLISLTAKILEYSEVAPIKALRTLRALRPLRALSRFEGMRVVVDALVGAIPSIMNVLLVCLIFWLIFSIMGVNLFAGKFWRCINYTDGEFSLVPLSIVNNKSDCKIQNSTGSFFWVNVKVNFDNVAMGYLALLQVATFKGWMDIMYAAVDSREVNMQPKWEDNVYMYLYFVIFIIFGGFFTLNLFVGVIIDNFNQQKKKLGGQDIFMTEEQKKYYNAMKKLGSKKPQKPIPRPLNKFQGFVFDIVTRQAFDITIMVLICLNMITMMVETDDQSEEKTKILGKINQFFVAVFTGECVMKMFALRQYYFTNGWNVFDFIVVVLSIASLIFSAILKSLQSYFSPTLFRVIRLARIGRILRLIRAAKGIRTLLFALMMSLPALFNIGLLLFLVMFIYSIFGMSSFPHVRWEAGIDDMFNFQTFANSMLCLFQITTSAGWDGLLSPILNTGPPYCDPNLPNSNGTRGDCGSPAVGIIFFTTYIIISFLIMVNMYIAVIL
ASSAY_PROCEDURE: E-VIPR Assay Detecting and Measuring NaV Inhibition Properties
CONDITIONS: HEK cells expressing a truncated form of human NaV 1.8; electrical stimulation, membrane potential FRET dyes; read-out: measured IC50 value in the E-VIPR Assay
pIC50: −log10 of the molar value.

Reference set, count: 5
{"COMPOUND_STRUCTURE": "Cc1cc(C(C)(C)C)ccc1-c1cc(=O)c2c[n+]([O-])ccc2[nH]1", "MEASURED_METRIC": "pIC50", "MEASUREMENT": "5.70 to 6.30"}
{"COMPOUND_STRUCTURE": "[2H]C([2H])([2H])C(c1cc(C)c(-c2cc(=O)c3c(C(N)=O)nccc3[nH]2)cc1Cl)(C([2H])([2H])[2H])C([2H])([2H])O", "MEASURED_METRIC": "pIC50", "MEASUREMENT": "5.30 to 5.70"}
{"COMPOUND_STRUCTURE": "Cc1ccc(C)c(-c2cc(=O)c3ccccc3[nH]2)c1", "MEASURED_METRIC": "pIC50", "MEASUREMENT": "5.30 to 5.70"}
{"COMPOUND_STRUCTURE": "Cc1nc(C(C)(C)C(=O)O)c(Cl)cc1-c1cc(=O)c2c(C(N)=O)nccc2[nH]1", "MEASURED_METRIC": "pIC50", "MEASUREMENT": "5.30 to 5.70"}
{"COMPOUND_STRUCTURE": "CC(C)(C)c1ccc(-c2cc(=O)c3cnccc3[nH]2)c(CCCO)c1", "MEASURED_METRIC": "pIC50", "MEASUREMENT": "5.30 to 5.70"}

Qu. Request body: readout pIC50, system human NaV 1.8 (Homo sapiens, UniProt Q9Y5Y9), query Cc1nc(C(C)(C)C)ccc1-c1cc(=O)c2c(C(N)=O)nccc2[nH]1 . Return the value.
Ans. 5.70 to 6.30

Qu. Now this one: Cc1cc(OC(F)(F)F)ccc1-c1cc(=O)c2ccccc2[nH]1
Ans. 5.70 to 6.30

Qu. Now this one: COc1cc(C(F)(F)F)ccc1-c1cc(=O)c2ccccc2[nH]1
Ans. 5.30 to 5.70

Qu. Now this one: Cc1cc(C2(C#N)CC2)ccc1-c1cc(=O)c2ccccc2[nH]1
Ans. 5.30 to 5.70

Qu. Now this one: Cc1c(-c2cc(=O)c3ccccc3[nH]2)ccc2c1CCC2
Ans. 5.70 to 6.30

Qu. Now this one: O=c1cc(-c2cc3c(cc2Cl)CCC3)[nH]c2ccccc12
Ans. 5.30 to 5.70

Qu. Now this one: CC(C)(C)c1ccc(-c2cc(=O)c3c(C(N)=O)nccc3[nH]2)c(F)c1
Ans. 5.70 to 6.30

Qu. Now this one: COc1cc(C(C)C)cc(C)c1-c1cc(=O)c2ccccc2[nH]1
Ans. 5.70 to 6.30

Qu. Now this one: Cc1cc(C(C)(C)CO)c(Cl)cc1-c1cc(=O)c2c(C(N)=O)nccc2[nH]1
Ans. 5.30 to 5.70

Qu. Now this one: Cc1ccc(-c2cc(=O)c3ccccc3[nH]2)c(C)c1
Ans. 5.30 to 5.70

Qu. Now this one: Cc1ccc(-c2cc(=O)c3ccccc3[nH]2)c(C)c1Cl
Ans. 5.70 to 6.30

---

STUDY_TARGET: UniProtKB Q9Y5Y9
ASSAY_PROCEDURE: E-VIPR Assay Detecting and Measuring NaV Inhibition Properties
CONDITIONS: HEK cells expressing a truncated form of human NaV 1.8; electrical stimulation, membrane potential FRET dyes; read-out: measured IC50 value in the E-VIPR Assay
Source text: E-VIPR Assay Detecting and Measuring NaV Inhibition Properties Sodium ion channels are voltage-dependent proteins that can be activated by inducing membrane voltage changes by applying electric fields. […]
pIC50: −log10 of the molar value.
In this section we review reported pIC50 values for a set of compounds.

{"COMPOUND": "CCOC(=O)c1ccc(-c2cc(=O)c3ccccc3[nH]2)c(C)c1", "pIC50": "5.30 to 5.70"}
{"COMPOUND": "CC(C)(C)c1ccc(-c2[nH]c3ccncc3c(=O)c2Br)c(CCCO)c1", "pIC50": "5.30 to 5.70"}
{"COMPOUND": "Cc1cc(C(C)(CO)C(F)(F)F)c(Cl)cc1-c1cc(=O)c2c(C(N)=O)nccc2[nH]1 (single isomer, unassigned)", "pIC50": "5.70 to 6.30"}
{"COMPOUND": "Cc1ccc(C(F)(F)F)cc1-c1cc(=O)c2ccccc2[nH]1", "pIC50": "5.30 to 5.70"}
{"COMPOUND": "CC1(C)CCC(C)(C)c2cc(-c3cc(=O)c4c(C(N)=O)nccc4[nH]3)ccc21", "pIC50": "5.70 to 6.30"}

Qu. Looking for the measured pIC50 of Cc1cc(C)c(C(C)C)cc1-c1cc(=O)c2c(C(N)=O)nccc2[nH]1 , can you help?
Ans. 5.70 to 6.30

Qu. Now this one: Cc1cc(C(C)(C)C)ccc1-c1cc(=O)c2cccnc2[nH]1
Ans. 5.30 to 5.70

Qu. Now this one: CCOC(=O)c1nc(C)c(-c2nccc3[nH]c(-c4cc(Cl)c(C(C)(C)C)cc4C)cc(=O)c23)o1
Ans. 5.70 to 6.30

---

STUDY_TARGET: human NaV 1.8 (Homo sapiens)
ASSAY_PROCEDURE: E-VIPR Assay Detecting and Measuring NaV Inhibition Properties
CONDITIONS: HEK cells expressing a truncated form of human NaV 1.8; electrical stimulation, membrane potential FRET dyes; read-out: measured IC50 value in the E-VIPR Assay
MEASURED_METRIC: IC50

{"COMPOUND_STRUCTURE": "Cc1cc(Cl)c(Cl)cc1-c1cc(=O)c2cnccc2[nH]1", "MEASURED_METRIC": "IC50", "MEASUREMENT": "0.5 to 2 µM"}

Qu. Looking for the measured IC50 of CCCN(CCC)c1nc2ccccc2cc1-c1cc(=O)c2c(C(N)=O)nccc2[nH]1 , can you help?
Ans. 2 to 5 µM

Qu. Now this one: COC(C)(C)c1ccc(-c2cc(=O)c3ccccc3[nH]2)c(C)c1
Ans. 0.5 to 2 µM

---

In this section we review reported pIC50 values for a set of molecules.
STUDY_TARGET: human NaV 1.8 (Homo sapiens, UniProt Q9Y5Y9)
ASSAY_PROCEDURE: E-VIPR Assay Detecting and Measuring NaV Inhibition Properties
CONDITIONS: HEK cells expressing a truncated form of human NaV 1.8; electrical stimulation, membrane potential FRET dyes; read-out: measured IC50 value in the E-VIPR Assay
pIC50: −log10 of the molar value.

{"COMPOUND_STRUCTURE": "Cc1nc(C(C)(C)C)c(C)nc1-c1cc(=O)c2c(C(N)=O)nccc2[nH]1", "pIC50": "5.70 to 6.30"}

Qu. Looking for the measured pIC50 of Cn1nc(C(C)(C)C)cc1-c1cc(=O)c2cc(F)ccc2[nH]1 , can you help?
Ans. 5.70 to 6.30

Qu. Now this one: COc1cc(C)c(C)cc1-c1cc(=O)c2ccccc2[nH]1
Ans. 5.30 to 5.70

---

STUDY_TARGET: human NaV 1.8 (Homo sapiens, UniProt Q9Y5Y9)
ASSAY_PROCEDURE: E-VIPR Assay Detecting and Measuring NaV Inhibition Properties
CONDITIONS: HEK cells expressing a truncated form of human NaV 1.8; electrical stimulation, membrane potential FRET dyes; read-out: measured IC50 value in the E-VIPR Assay
MEASURED_METRIC: IC50

Reference set, count: 6
{"COMPOUND": "Cc1cc(C2CC2)ccc1-c1cc(=O)c2ccccc2[nH]1 [Compound 8]", "MEASURED_METRIC": "IC50", "MEASUREMENT": "500 to 2000 nM"}
{"COMPOUND": "Cc1ccc2[nH]c(-c3ccc(C(C)(C)C)cc3C)cc(=O)c2c1 [Compound 126]", "MEASURED_METRIC": "IC50", "MEASUREMENT": "500 to 2000 nM"}
{"COMPOUND": "CC(C)(C)c1ccc(-c2cc(=O)c3ccccc3[nH]2)cc1 [Compound 5, 2-(4-tert-butylphenyl)-1H-quinolin-4-one]", "MEASURED_METRIC": "IC50", "MEASUREMENT": "500 to 2000 nM"}
{"COMPOUND": "Cc1cc(C)c(-c2cc(=O)c3c(C#N)cccc3[nH]2)cc1C [Compound 123]", "MEASURED_METRIC": "IC50", "MEASUREMENT": "500 to 2000 nM"}
{"COMPOUND": "Cc1cc(C)c(-c2cc(=O)c3ccccc3[nH]2)cc1C [Compound 124]", "MEASURED_METRIC": "IC50", "MEASUREMENT": "500 to 2000 nM"}
{"COMPOUND": "Cc1nc(C2(C)CC2)c(Cl)cc1-c1cc(=O)c2c(C(N)=O)nccc2[nH]1 [Compound 286]", "MEASURED_METRIC": "IC50", "MEASUREMENT": "500 to 2000 nM"}

Qu. Looking for the measured IC50 of Cc1cc(-c2cc(=O)c3c[n+]([O-])ccc3[nH]2)c(C)nc1C(C)(C)C [Compound 195] , can you help?
Ans. 500 to 2000 nM

Qu. Now this one: CCOc1cc(C(F)(F)F)ccc1-c1cc(=O)c2ccccc2[nH]1 [Compound 28]
Ans. 2000 to 5000 nM

Qu. Now this one: Cc1cc(-c2cc(=O)c3c(=O)[nH]ccc3[nH]2)c(C)nc1C(F)(F)F [Compound 200]
Ans. 500 to 2000 nM

Qu. Now this one: Cc1cc(Cl)c(Cl)cc1-c1cc(=O)c2ccccc2[nH]1 [Compound 117]
Ans. 500 to 2000 nM

Qu. Now this one: COc1cc(C)c(-c2cc(=O)c3ccccc3[nH]2)cc1C [Compound 23]
Ans. 2000 to 5000 nM

Qu. Now this one: CCc1cc(-c2cc(=O)c3c(C(N)=O)nccc3[nH]2)c(C)cc1C [Compound 224]
Ans. 500 to 2000 nM
